Target: CRTH2 receptor (hCRTH2) (Homo sapiens, UniProt Q9Y5Y4)
Construct: expressed in transfected cells; host or cells: HEK cells (HEK-hCRTH2 cell line), membranes
Sequence (Q9Y5Y4 whole entry): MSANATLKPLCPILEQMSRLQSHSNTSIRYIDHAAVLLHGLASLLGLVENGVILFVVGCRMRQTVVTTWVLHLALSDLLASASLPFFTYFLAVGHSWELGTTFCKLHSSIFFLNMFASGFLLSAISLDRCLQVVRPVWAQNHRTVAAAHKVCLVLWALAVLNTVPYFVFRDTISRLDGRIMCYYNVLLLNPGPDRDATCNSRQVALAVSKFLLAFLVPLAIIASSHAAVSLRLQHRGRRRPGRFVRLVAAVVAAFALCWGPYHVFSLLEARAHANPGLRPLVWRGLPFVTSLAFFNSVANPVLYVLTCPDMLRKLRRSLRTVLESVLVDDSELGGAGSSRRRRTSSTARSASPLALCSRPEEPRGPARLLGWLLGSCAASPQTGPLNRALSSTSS
Test: Radioligand binding assay ([3H]PGD2 competition, membranes of HEK-hCRTH2 cell line)
Settings: 3.0 nM [3H]PGD2, HEK-hCRTH2 membranes, 60 min, room temperature; read-out: Ki
REPORTED METRIC: Ki

Some molecules with recorded Ki:
CO[C@H](c1ccccc1)c1cc(-c2ccc3c(=O)n(-c4ccc(F)cc4)c(C(C)CCCC(=O)O)nc3c2)no1 (stereo partly shown) ... ≤ 0.01 µM
O=C(O)CCCCc1nc2cc(-c3ccon3)ccc2c(=O)n1-c1ccc(F)cc1 ... 0.01 to 0.05 µM

Lab request: please report Ki under test system CRTH2 receptor (hCRTH2) (Homo sapiens, UniProt Q9Y5Y4) for O=C(O)CCCCc1nc2cc(C3=NO[C@H](c4nc5ccc(Cl)cc5s4)C3)ccc2c(=O)n1-c1ccc(F)cc1
≤ 0.01 µM

Lab request: please report Ki under test system CRTH2 receptor (hCRTH2) (Homo sapiens, UniProt Q9Y5Y4) for COCC1(c2ccccc2)CC(c2ccc3c(=O)n(-c4ccc(F)cc4)c(CCCCC(=O)O)nc3c2)=NO1 (stereo not shown) [Example 15V]
0.01 to 0.05 µM

Lab request: please report Ki under test system CRTH2 receptor (hCRTH2) (Homo sapiens, UniProt Q9Y5Y4) for CC(c1ccc(F)cc1)C1(C)CC(c2ccc3c(=O)n(-c4ccc(F)cc4)c(CCCCC(=O)O)nc3c2)=NO1 (stereo not shown)
≤ 0.01 µM

Lab request: please report Ki under test system CRTH2 receptor (hCRTH2) (Homo sapiens, UniProt Q9Y5Y4) for O=C(O)CCCCc1nc2cc(-n3cc(-c4ccccc4)nn3)ccc2c(=O)n1-c1ccc(F)cc1 [Example 21D]
≤ 0.01 µM

Lab request: please report Ki under test system CRTH2 receptor (hCRTH2) (Homo sapiens, UniProt Q9Y5Y4) for O=C(O)CCCCc1nc2cc(-c3cc(COCc4cc(F)cc(Cl)c4)on3)ccc2c(=O)n1-c1ccc(F)cc1
≤ 0.01 µM
